Reported IC50 is given for each of the following compounds.
Tested on: THP-1
Experiment: Cytotoxicity against PMA-stimulated human THP1 cells after 72 hrs by MTT assay
Assay type: cell-based
Details: THP-1, 72 h

COMPOUND	ASSAY_VALUE
COC(=O)C1=C(C)N2C[C@H](C)O[C@@]2(C)[C@@H](C(=O)OC)[C@@H]1c1cccc(Cl)c1	> 400 µM
COc1cccc2c1C(=O)c1c(O)c3c(c(O)c1C2=O)C[C@@](O)(C(C)=O)C[C@@H]3O[C@H]1C[C@H](N)[C@H](O)[C@H](C)O1	26.9 µM
COC(=O)C1=C(C)N2CCCO[C@@]2(C)[C@@H](C(=O)OC)[C@@H]1c1cccc(Cl)c1 (racemic)	> 400 µM

We now examine a further compound.
Item: COC(=O)C1=C(C)N2CCO[C@@]2(C)[C@@H](C(=O)OC)[C@@H]1c1cccc([N+](=O)[O-])c1 (racemic) | IC50: > 400 µM

Source of measurements: ChEMBL document CHEMBL2146369
